Experiment: Selectivity ratio of CC50 for MDCK cells to EC50 for pandemic Influenza A virus A/TW/90206/09 (H1N1) SO4
Assay type: toxicity
Conditions: dog, read-out: Ratio CC50/EC50
metric.name: selectivity ratio
Kindly provide the number alone.

Exam item: Any idea what its selectivity ratio is? The molecule is `C=C(CC(=O)Nc1ccc(F)cc1F)C(=O)Nc1ccc(F)cc1F`
Marked response: 28

###

Assay: Selectivity ratio of CC50 for MDCK cells to EC50 for Influenza A virus A/TW/00642/14
Format: toxicity
Details: dog, read-out: Ratio CC50/EC50
metric.name: selectivity ratio
Give the figure only, with no unit attached.

Exam item: Fill in: selectivity ratio of `C=C(CC(=O)Nc1ccc(F)cc1F)C(=O)Nc1ccc(F)cc1F` is ___
Marked response: 25
